*1 amine or outer side, *2 acyl side, *3 side chain or, on linkers, in order; H or OH if unused. Where a SMILES comes first, the peptide text is derived from it. Bridges are numbered along the chain shown (N, C = ends). [ ]: non-standard residue; d: D form. The star is where a group is joined. 6FAM = O=C1OC2(c3ccc(O)cc3Oc3cc(O)ccc32)c2cc(C(=O)*)ccc21; X1 = O=C([C@@H](O)CS[*:2])[*:1]; Orn = NCCC[C@H](N)C(=O)O; Mpa = O=C(O)CCS
Data export: pKi values recorded with Vasopressin V1b receptor (Homo sapiens, UniProt P47901).
Sequence (P47901 whole entry): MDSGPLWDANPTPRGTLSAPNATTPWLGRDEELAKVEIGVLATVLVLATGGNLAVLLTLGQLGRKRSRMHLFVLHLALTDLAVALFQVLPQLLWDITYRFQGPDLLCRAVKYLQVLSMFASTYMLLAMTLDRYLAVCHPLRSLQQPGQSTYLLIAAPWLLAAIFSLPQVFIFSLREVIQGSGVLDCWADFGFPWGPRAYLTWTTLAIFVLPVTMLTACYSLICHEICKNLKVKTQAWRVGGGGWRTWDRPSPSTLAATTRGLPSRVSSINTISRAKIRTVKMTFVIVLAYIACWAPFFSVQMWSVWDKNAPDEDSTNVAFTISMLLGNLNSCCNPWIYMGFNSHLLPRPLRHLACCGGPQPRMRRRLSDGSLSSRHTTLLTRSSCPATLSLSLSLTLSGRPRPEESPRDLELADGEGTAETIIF
Value format note: pKi is -log10 of concentration (mol/L); just state the number.

Requested field: pKi. Item: CC[C@H](C)[C@@H]1NC(=O)[C@H](Cc2ccc(O)cc2)NC(=O)[C@@H](O)CSSC[C@@H](C(=O)N2CCC[C@H]2C(=O)N[C@@H](CCCCNC(=O)c2ccc3c(c2)C2(OC3=O)c3ccc(O)cc3Oc3cc(O)ccc32)C(=O)NCC(N)=O)NC(=O)[C@H](CC(N)=O)NC(=O)[C@H]([C@@H](C)O)NC1=O (YITNCPK(6FAM)G-NH2; linker N-5 via X1)
7.28

CC[C@H](C)[C@@H]1NC(=O)[C@H](Cc2ccc(O)cc2)NC(=O)[C@@H](O)CSSC[C@@H](C(=O)N2CCC[C@H]2C(=O)N[C@@H](CCCNC(=O)c2ccc3c(c2)C2(OC3=O)c3ccc(O)cc3Oc3cc(O)ccc32)C(=O)NCC(N)=O)NC(=O)[C@H](CC(N)=O)NC(=O)[C@H]([C@@H](C)O)NC1=O (YITNCP[Orn](6FAM)G-NH2; linker N-5 via X1) , same question.
7.06

Okay, and CC[C@H](C)[C@@H]1NC(=O)[C@H](Cc2ccc(O)cc2)NC(=O)CCSSC[C@@H](C(=O)N2CCC[C@H]2C(=O)N[C@@H](CCCCNC(=O)c2ccc3c(c2)C2(OC3=O)c3ccc(O)cc3Oc3cc(O)ccc32)C(=O)NCC(N)=O)NC(=O)[C@H](CC(N)=O)NC(=O)[C@H]([C@@H](C)O)NC1=O ([Mpa]YITNCPK(6FAM)G-NH2; disulfide 1-6) ?
6.82

Same lookup for CC[C@H](C)[C@@H]1NC(=O)[C@H](Cc2ccc(O)cc2)NC(=O)CCSSC[C@@H](C(=O)N2CCC[C@H]2C(=O)N[C@@H](CCCNC(=O)c2ccc3c(c2)C2(OC3=O)c3ccc(O)cc3Oc3cc(O)ccc32)C(=O)NCC(N)=O)NC(=O)[C@H](CC(N)=O)NC(=O)[C@H]([C@@H](C)O)NC1=O ([Mpa]YITNCP[Orn](6FAM)G-NH2; disulfide 1-6) , please.
6.55

---

*1 amine or outer side, *2 acyl side, *3 side chain or, on linkers, in order; H or OH if unused. Where a SMILES comes first, the peptide text is derived from it. Bridges are numbered along the chain shown (N, C = ends). [ ]: non-standard residue; d: D form. The star is where a group is joined. 6FAM = O=C1OC2(c3ccc(O)cc3Oc3cc(O)ccc32)c2cc(C(=O)*)ccc21; X1 = O=C([C@@H](O)CS[*:2])[*:1]; Orn = NCCC[C@H](N)C(=O)O; Mpa = O=C(O)CCS
Observed pKi, system Oxytocin receptor (Homo sapiens, UniProt P30559).
Please note pKi is a logarithmic value: minus log10 of concentration in mol/L. Answer with that number alone.

# pKi lookup, item CC[C@H](C)[C@@H]1NC(=O)[C@H](Cc2ccc(O)cc2)NC(=O)CCSSC[C@@H](C(=O)N2CCC[C@H]2C(=O)N[C@@H](CCCNC(=O)c2ccc3c(c2)C2(OC3=O)c3ccc(O)cc3Oc3cc(O)ccc32)C(=O)NCC(N)=O)NC(=O)[C@H](CC(N)=O)NC(=O)[C@H]([C@@H](C)O)NC1=O ([Mpa]YITNCP[Orn](6FAM)G-NH2; disulfide 1-6)
9.40

Thanks! And CC[C@H](C)[C@@H]1NC(=O)[C@H](Cc2ccc(O)cc2)NC(=O)[C@@H](O)CSSC[C@@H](C(=O)N2CCC[C@H]2C(=O)N[C@@H](CCCNC(=O)c2ccc3c(c2)C2(OC3=O)c3ccc(O)cc3Oc3cc(O)ccc32)C(=O)NCC(N)=O)NC(=O)[C@H](CC(N)=O)NC(=O)[C@H]([C@@H](C)O)NC1=O (YITNCP[Orn](6FAM)G-NH2; linker N-5 via X1) ?
9.77

Entry CC[C@H](C)[C@@H]1NC(=O)[C@H](Cc2ccc(O)cc2)NC(=O)[C@@H](O)CSSC[C@@H](C(=O)N2CCC[C@H]2C(=O)N[C@@H](CCCCNC(=O)c2ccc3c(c2)C2(OC3=O)c3ccc(O)cc3Oc3cc(O)ccc32)C(=O)NCC(N)=O)NC(=O)[C@H](CC(N)=O)NC(=O)[C@H]([C@@H](C)O)NC1=O (YITNCPK(6FAM)G-NH2; linker N-5 via X1) please
9.49

Quick one: CC[C@H](C)[C@@H]1NC(=O)[C@H](Cc2ccc(O)cc2)NC(=O)CCSSC[C@@H](C(=O)N2CCC[C@H]2C(=O)N[C@@H](CCCCNC(=O)c2ccc3c(c2)C2(OC3=O)c3ccc(O)cc3Oc3cc(O)ccc32)C(=O)NCC(N)=O)NC(=O)[C@H](CC(N)=O)NC(=O)[C@H]([C@@H](C)O)NC1=O ([Mpa]YITNCPK(6FAM)G-NH2; disulfide 1-6)
8.74

---

Hi! I'm sharing some Ki results obtained with Vasopressin V2 receptor (Homo sapiens).
Sequence (P30518 whole entry): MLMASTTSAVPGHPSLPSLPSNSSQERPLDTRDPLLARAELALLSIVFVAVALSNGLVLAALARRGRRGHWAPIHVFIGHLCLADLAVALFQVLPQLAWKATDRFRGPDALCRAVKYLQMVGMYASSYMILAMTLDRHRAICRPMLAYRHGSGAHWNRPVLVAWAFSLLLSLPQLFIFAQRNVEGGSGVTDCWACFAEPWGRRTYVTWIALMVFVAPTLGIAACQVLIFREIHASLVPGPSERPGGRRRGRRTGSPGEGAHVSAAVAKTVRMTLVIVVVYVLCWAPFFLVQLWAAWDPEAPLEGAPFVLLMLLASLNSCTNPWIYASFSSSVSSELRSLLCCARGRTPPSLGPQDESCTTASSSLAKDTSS
*1 amine or outer side, *2 acyl side, *3 side chain or, on linkers, in order; H or OH if unused. Where a SMILES comes first, the peptide text is derived from it. Bridges are numbered along the chain shown (N, C = ends). [ ]: non-standard residue; d: D form. The star is where a group is joined. 6FAM = O=C1OC2(c3ccc(O)cc3Oc3cc(O)ccc32)c2cc(C(=O)*)ccc21; X1 = O=C([C@@H](O)CS[*:2])[*:1]; Orn = NCCC[C@H](N)C(=O)O; Mpa = O=C(O)CCS

Which Ki reading was recorded for the compound CC[C@H](C)[C@@H]1NC(=O)[C@H](Cc2ccc(O)cc2)NC(=O)CCSSC[C@@H](C(=O)N2CCC[C@H]2C(=O)N[C@@H](CCCNC(=O)c2ccc3c(c2)C2(OC3=O)c3ccc(O)cc3Oc3cc(O)ccc32)C(=O)NCC(N)=O)NC(=O)[C@H](CC(N)=O)NC(=O)[C@H]([C@@H](C)O)NC1=O ([Mpa]YITNCP[Orn](6FAM)G-NH2; disulfide 1-6) ?
> 10 µM

Now the compound CC[C@H](C)[C@@H]1NC(=O)[C@H](Cc2ccc(O)cc2)NC(=O)[C@@H](O)CSSC[C@@H](C(=O)N2CCC[C@H]2C(=O)N[C@@H](CCCNC(=O)c2ccc3c(c2)C2(OC3=O)c3ccc(O)cc3Oc3cc(O)ccc32)C(=O)NCC(N)=O)NC(=O)[C@H](CC(N)=O)NC(=O)[C@H]([C@@H](C)O)NC1=O (YITNCP[Orn](6FAM)G-NH2; linker N-5 via X1)
> 1 µM

Another compound to check: CC[C@H](C)[C@@H]1NC(=O)[C@H](Cc2ccc(O)cc2)NC(=O)CCSSC[C@@H](C(=O)N2CCC[C@H]2C(=O)N[C@@H](CCCCNC(=O)c2ccc3c(c2)C2(OC3=O)c3ccc(O)cc3Oc3cc(O)ccc32)C(=O)NCC(N)=O)NC(=O)[C@H](CC(N)=O)NC(=O)[C@H]([C@@H](C)O)NC1=O ([Mpa]YITNCPK(6FAM)G-NH2; disulfide 1-6)
> 10 µM

Can you check CC[C@H](C)[C@@H]1NC(=O)[C@H](Cc2ccc(O)cc2)NC(=O)[C@@H](O)CSSC[C@@H](C(=O)N2CCC[C@H]2C(=O)N[C@@H](CCCCNC(=O)c2ccc3c(c2)C2(OC3=O)c3ccc(O)cc3Oc3cc(O)ccc32)C(=O)NCC(N)=O)NC(=O)[C@H](CC(N)=O)NC(=O)[C@H]([C@@H](C)O)NC1=O (YITNCPK(6FAM)G-NH2; linker N-5 via X1) next?
> 10 µM
